Property: MCC at 168 h; scope: individual molecules
Measurement Description: Concentration determined to be cytotoxic (reduced cell number as compared with controls), was recorded after 7 days incubation in the […] assay system
Assay type: cell-based
Condition Context: human, H9 cells (H9/HIV-IIIB assay system); read-out: Cell toxicity
Observable: MCC at 168 h

| Compound | Test Result |
| --- | --- |
| CCN1c2ncccc2-c2ncc(C)n2-c2ccc(O)nc21 | > 100 µM |
| CCN1c2ncccc2-c2nccn2-c2ccc(OC)nc21 | > 10 µM |
| CCN1c2ncccc2-c2ncc(C)n2-c2cccnc21 | > 100 µM |

====

System: Human immunodeficiency virus type 1 reverse transcriptase (Human immunodeficiency virus 1, UniProt Q72547)
Measurement Description: Ability to inhibit HIV-1 IIIB reverse transcriptase catalyzed incorporation of tritiated thymidine triphosphate onto a biotinylated rN.dN template primer
Label True when IC50 is strictly below 2000 nM; at or above that, label False.

| Compound | Label Value |
| --- | --- |
| CCN1c2ncccc2-c2nnc(CN(C)C)n2-c2cccnc21 | False |
| CCN1c2ncccc2-c2nc(C)cn2-c2cccnc21 | False |
| Cc1ccnc2c1-n1ccnc1-c1cccnc1N2C1CC1 | True |
| CCN1c2ncccc2-c2nccn2-c2c(C)ccnc21 | True |
| CCN1c2ncccc2-c2ncc(C)n2-c2ccc(N3CCCC3)nc21 | True |

====

System: Human immunodeficiency virus type 1 reverse transcriptase (Human immunodeficiency virus 1, UniProt Q72547)
Measurement Description: Ability to inhibit HIV-1 IIIB reverse transcriptase catalyzed incorporation of tritiated thymidine triphosphate onto a biotinylated rA.dT template primer

| Compound | IC50 |
| --- | --- |
| CCN1c2ncccc2-c2nccn2-c2ccc(N3CCCC3)nc21 | 3.9 µM |
| CCN1c2ncccc2-c2nncn2-c2c(C)ccnc21 | 44.5 µM |
| CCN1c2ncccc2-c2ncc(C)n2-c2ccc(N3CCCC3)nc21 | 2.7 µM |
| CCN1c2ncccc2-c2nnc(CN(C)C)n2-c2cccnc21 | > 100 µM |
| CCN1c2ncccc2-c2nnc(C)n2-c2c(C)ccnc21 | 198 µM |
| CCN1c2ncccc2-c2nnnn2-c2c(C)ccnc21 | 75.1 µM |
| CCN1c2ncccc2-c2nnc(-c3ccccc3)n2-c2cccnc21 | > 100 µM |
| CCN1c2ncccc2C(=O)Nc2c(C)ccnc21 | 10.3 µM |
